I'd be grateful if you could share measured Emax for these entries.
# studySystem: M4 muscarinic receptor (Homo sapiens)
# Construct: expressed in transfected cells; host or cells: CHO (M4-CHO)
# Sequence (P08173 whole entry): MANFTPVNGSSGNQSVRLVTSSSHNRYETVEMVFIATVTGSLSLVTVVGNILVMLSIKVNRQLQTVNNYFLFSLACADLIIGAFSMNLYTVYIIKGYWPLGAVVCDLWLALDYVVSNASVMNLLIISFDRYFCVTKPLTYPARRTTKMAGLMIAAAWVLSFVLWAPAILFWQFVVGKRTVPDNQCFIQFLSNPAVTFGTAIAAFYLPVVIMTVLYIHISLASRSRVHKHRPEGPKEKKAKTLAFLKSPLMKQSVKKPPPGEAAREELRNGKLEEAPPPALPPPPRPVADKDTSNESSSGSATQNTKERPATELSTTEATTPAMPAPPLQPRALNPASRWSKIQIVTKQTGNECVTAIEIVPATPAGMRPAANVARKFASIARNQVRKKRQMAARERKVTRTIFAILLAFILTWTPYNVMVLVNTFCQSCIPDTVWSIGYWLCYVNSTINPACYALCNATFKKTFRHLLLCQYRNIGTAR
# measurementNotes: Functional mobilization of intracellular calcium (FLIPR), M4-CHO cells
# Type: cell-based
# conditionNotes: 100% efficacy = maximum response obtained with the Carbachol control

Can you look up the measured Emax of COc1ccc(-c2ccc(C(N)=O)cc2)cc1C1CCN([C@H]2C[C@H]3CC[C@H]2C3)CC1 [Compound 6] for me?
< 25%

So what's the measured Emax for this one? COc1ccccc1C1(C#N)CCN(C2CCCCCC2)CC1 [Compound 279]
25 to 100%

// Emax lookup, key: COc1ccc(Cl)cc1C1(F)CCN([C@@H]2C[C@H]3CC[C@H]2C3)CC1 [Compound 309]
25 to 100%

Emax lookup needed for COCCNC(=O)c1ccc(-c2ccc(OC)c(C3CCN([C@H]4C[C@H]5CC[C@H]4C5)CC3)c2)cc1 [Compound 87] , thanks.
< 25%

----------
# studySystem: M1 muscarinic receptor (Homo sapiens, UniProt P11229)
# Construct: expressed in transfected cells; host or cells: CHO (M1-CHO)
# measurementNotes: Functional mobilization of intracellular calcium (FLIPR), M1-CHO cells
# Assay type: cell-based
# conditionNotes: 100% efficacy = maximum response obtained with the Carbachol control
Exercise: state measured Emax for each of the molecules provided.

So what's the measured Emax for this one? `CCOC(=O)N1CCC(N2CCC(OC)(c3cc(Cl)ccc3OC)CC2)CC1`
25 to 100%

# lookup: Emax of `COc1ccc(Cl)cc1C1CCN(C2(C)CCCCC2)CC1`
25 to 100%

Value lookup for Emax; key = `CCOC(=O)N1CCC(CN2CCC(c3cc(C(F)(F)F)ccc3C)CC2)CC1`
25 to 100%

Name the recorded Emax for COc1ccccc1C1(O)CCN(CC2CC3C=CC2C3)CC1 (stereo not shown) .
25 to 100%

What does the data say about its Emax? Entry: `COc1ccc(F)cc1C1CCN([C@H]2C[C@H]3CC[C@H]2C3)CC1`
25 to 100%

Would you kindly share the measured Emax for `COc1cc(F)c(F)cc1C1CCN([C@@H]2C[C@H]3CC[C@H]2C3)CC1` ?
< 25%

Give its Emax value. Item: `CCOC(=O)C(C)(C)Oc1ccccc1C1CCN([C@H]2C[C@H]3CC[C@H]2C3)CC1`
< 25%

----------
Please provide measured Emax for the entries that follow.
# studySystem: M1 muscarinic receptor (Homo sapiens, UniProt P11229)
# Construct: expressed in transfected cells; host or cells: CHO (M1-CHO)
# Sequence (P11229 1-460): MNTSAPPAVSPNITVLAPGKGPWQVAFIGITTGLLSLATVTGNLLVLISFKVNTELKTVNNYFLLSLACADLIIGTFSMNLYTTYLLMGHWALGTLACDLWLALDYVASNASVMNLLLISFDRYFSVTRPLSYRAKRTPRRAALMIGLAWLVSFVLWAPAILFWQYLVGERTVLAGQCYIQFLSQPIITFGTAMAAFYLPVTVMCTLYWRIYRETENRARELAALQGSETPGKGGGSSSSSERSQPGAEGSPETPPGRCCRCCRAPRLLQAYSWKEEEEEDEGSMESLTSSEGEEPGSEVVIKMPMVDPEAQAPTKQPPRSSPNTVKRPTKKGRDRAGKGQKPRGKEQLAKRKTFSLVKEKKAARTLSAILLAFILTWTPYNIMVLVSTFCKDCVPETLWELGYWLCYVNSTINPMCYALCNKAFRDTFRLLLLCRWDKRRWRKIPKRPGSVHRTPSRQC
# measurementNotes: Functional mobilization of intracellular calcium (FLIPR), M1-CHO cells
# Type: cell-based
# conditionNotes: 100% efficacy = maximum response obtained with the Carbachol control

What value of measured Emax is listed for CCOC(=O)N1CCC(CN2CCC(F)(c3cc(Cl)ccc3OC)CC2)CC1 [Compound 122] ?
25 to 100%

Give the measured Emax of COc1ccc(-c2cccc(F)c2)cc1C1CCN([C@H]2C[C@H]3CC[C@H]2C3)CC1 [Compound 366] .
< 25%

I'd like to know its Emax. The molecule in question is COc1ccccc1C1CCN(C2CCOCC2)CC1 [Compound 90]
25 to 100%

Form field: reported Emax of COc1ccc(C(F)(F)F)cc1C1CCN(C2C[C@H]3CC[C@H]2C3)CC1 (stereo partly shown) [Compound 296]
25 to 100%

Please give the measured Emax for this molecule: COc1ccccc1C1CCN(C2CCC(c3ccccc3)CC2)CC1 (stereo not shown) [Compound 234]
< 25%

Look at this molecule and give its reported Emax. COc1ccc(-c2cccnc2)cc1C1CCN([C@H]2C[C@H]3CC[C@H]2C3)CC1 [Compound 148]
< 25%

Reported Emax, molecule CCOC(=O)N1CCC(CN2CCC(c3cc(-c4ccc(C(C)(C)C#N)cc4)ccc3OC)CC2)CC1 [Compound 272] : ____
25 to 100%

Could you share which Emax value was measured for COc1ccc(-c2ccc(C#N)cc2)cc1C1CCN(C2CC3CCC(C3)C2)CC1 (stereo not shown) [Compound 82] ?
25 to 100%

What measured Emax goes with COc1ccc(-c2ccc(C(=O)N3CCOCC3)cc2)cc1C1CCN([C@H]2C[C@H]3CC[C@H]2C3)CC1 [Compound 8] ?
< 25%

Sample CCOC(=O)N1CCC(N2CCC(c3cc(F)ccc3OC)CC2)CC1 [Compound 106] — what was its Emax?
25 to 100%

Need Emax of COc1ccccc1C1CCN(C2CCN(C(C)=O)CC2)CC1 [Compound 266] , thanks.
< 25%

Could you tell me which Emax is on file for CCCC1CCC(N2CCC(F)(c3cc(F)ccc3OC)CC2)CC1 (stereo not shown) [Compound 327] ?
25 to 100%

Reported Emax, molecule COc1cc(F)c(F)c(C2CCN(C3CCOCC3)CC2)c1 [Compound 49] : ____
25 to 100%
